Data origin, for the record: patent EP0007672A1

Here the recorded MIC is given for each entry.
# System: Trichophyton verrucosum
# assay.notes: MIC (Minimum Inhibitory Concentration)
# Format: cell-based
# condition.notes: Trichophyton verrucosum 134-66, read-out: MIC values

- compound: "[C-]#[N+]C(=CC(C)(C)C)S(=O)(=O)c1ccc(C)cc1 [Example 4]"
  subject.of.test: "Trichophyton verrucosum"
  qualifier: "<"
  MIC / µg/mL: 0.05
- compound: "[C-]#[N+]C(=Cc1ccc(Cl)cc1)S(=O)(=O)c1ccc(C)cc1 [Example 11]"
  subject.of.test: "Trichophyton verrucosum"
  qualifier: "<"
  MIC / µg/mL: 0.05
- compound: "[C-]#[N+]C(=C(C)c1ccc([N+](=O)[O-])cc1)S(=O)(=O)c1ccc(C)cc1 [Example 22]"
  subject.of.test: "Trichophyton verrucosum"
  qualifier: "="
  MIC / µg/mL: 1.5
- compound: "[C-]#[N+]C(=C(C)c1cccs1)S(=O)(=O)c1ccc(C)cc1 [Example 17]"
  subject.of.test: "Trichophyton verrucosum"
  qualifier: "="
  MIC / µg/mL: 0.75
- compound: "[C-]#[N+]C(C(C)=CC)S(=O)(=O)c1ccc(C)cc1 (centres unmarked) [Example 27b]"
  subject.of.test: "Trichophyton verrucosum"
  qualifier: "="
  MIC / µg/mL: 1.5
- compound: "[C-]#[N+]C(=C(CCCC)c1ccccc1)S(=O)(=O)c1ccc(C)cc1 [Example 19]"
  subject.of.test: "Trichophyton verrucosum"
  qualifier: "="
  MIC / µg/mL: 3
- compound: "[C-]#[N+]C(=Cc1ccc(OC)cc1)S(=O)(=O)c1ccc(C)cc1 [Example 23]"
  subject.of.test: "Trichophyton verrucosum"
  qualifier: "="
  MIC / µg/mL: 1.5
- compound: "[C-]#[N+]C(=Cc1ccco1)S(=O)(=O)c1ccc(C)cc1 [Example 10]"
  subject.of.test: "Trichophyton verrucosum"
  qualifier: "="
  MIC / µg/mL: 0.2
